- System under test: UV-DDB (DDB1-DDB2 heterodimer) (Homo sapiens) (UniProt Q16531+Q92466)
- Sequence (Q16531 whole entry, chain 1 of 2): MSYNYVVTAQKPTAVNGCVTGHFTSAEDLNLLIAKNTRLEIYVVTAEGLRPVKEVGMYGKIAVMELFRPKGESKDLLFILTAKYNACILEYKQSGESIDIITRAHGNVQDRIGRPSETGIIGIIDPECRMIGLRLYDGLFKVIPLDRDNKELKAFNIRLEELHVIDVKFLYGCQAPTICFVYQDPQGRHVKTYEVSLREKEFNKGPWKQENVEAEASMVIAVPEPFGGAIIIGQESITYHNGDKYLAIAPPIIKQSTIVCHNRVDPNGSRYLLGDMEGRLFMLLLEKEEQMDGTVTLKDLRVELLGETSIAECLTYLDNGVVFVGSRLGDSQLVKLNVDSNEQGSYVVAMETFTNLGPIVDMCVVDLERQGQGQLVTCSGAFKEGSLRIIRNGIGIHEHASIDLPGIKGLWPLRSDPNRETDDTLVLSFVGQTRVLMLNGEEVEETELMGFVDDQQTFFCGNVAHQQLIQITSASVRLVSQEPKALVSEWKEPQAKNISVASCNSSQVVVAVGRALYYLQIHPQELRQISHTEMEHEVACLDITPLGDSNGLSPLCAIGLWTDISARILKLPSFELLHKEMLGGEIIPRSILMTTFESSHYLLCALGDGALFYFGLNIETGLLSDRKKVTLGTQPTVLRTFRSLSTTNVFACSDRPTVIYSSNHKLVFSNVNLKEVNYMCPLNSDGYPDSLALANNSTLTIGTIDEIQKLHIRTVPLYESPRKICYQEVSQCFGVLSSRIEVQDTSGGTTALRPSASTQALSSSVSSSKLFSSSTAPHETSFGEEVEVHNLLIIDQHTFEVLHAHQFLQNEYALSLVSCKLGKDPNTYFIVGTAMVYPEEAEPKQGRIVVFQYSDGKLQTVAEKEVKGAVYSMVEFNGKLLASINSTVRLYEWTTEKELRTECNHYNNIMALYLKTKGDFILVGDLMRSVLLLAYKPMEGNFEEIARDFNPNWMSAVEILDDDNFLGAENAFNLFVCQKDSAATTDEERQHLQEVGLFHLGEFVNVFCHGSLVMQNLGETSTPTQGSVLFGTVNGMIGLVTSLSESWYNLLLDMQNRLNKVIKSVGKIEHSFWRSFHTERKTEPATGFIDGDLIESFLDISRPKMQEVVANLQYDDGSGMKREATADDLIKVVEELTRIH
- Sequence (Q92466 whole entry, chain 2 of 2): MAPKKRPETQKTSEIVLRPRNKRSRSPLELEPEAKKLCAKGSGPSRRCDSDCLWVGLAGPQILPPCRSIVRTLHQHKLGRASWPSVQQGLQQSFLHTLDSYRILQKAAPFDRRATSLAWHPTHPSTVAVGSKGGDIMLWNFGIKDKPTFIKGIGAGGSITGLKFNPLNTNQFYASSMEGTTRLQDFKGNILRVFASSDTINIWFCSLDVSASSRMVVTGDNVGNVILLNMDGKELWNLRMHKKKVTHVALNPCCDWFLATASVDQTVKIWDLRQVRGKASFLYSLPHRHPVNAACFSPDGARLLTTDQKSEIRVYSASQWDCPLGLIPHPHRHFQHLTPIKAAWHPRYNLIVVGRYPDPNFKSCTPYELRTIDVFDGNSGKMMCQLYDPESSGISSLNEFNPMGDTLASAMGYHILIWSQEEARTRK
- Procedure text: EMSA
- Particulars: N at position 20 of strand 1 = tetrahydrofuran (abasic analog), opposite T

Input sequence	Unit descriptor	Kd
CCGAGTCATTCCTGCAGCGNGTCCATGGGAGTCAAAT / ATTTGACTCCCATGGACTCGCTGCAGGAATGACTCGG [THF37]	nM	3.9
